test system: BV-2; assay: Anti-neuroinflammation in mouse BV2 cells assessed as inhibition of LPS-induced NO production preincubated for 1 hr followed by LPS addition measured after 24 hrs by Griess reagent based assay; type: functional, cell-based
pIC50: −log10 of the molar value.
attribute measured: pIC50

{"given smiles": "Cc1ccccc1Nc1cc(-c2noc(-c3ccc(NS(=O)(=O)c4ccc(C(C)(C)C)cc4)cc3)n2)ccn1", "value": 5.22}
{"given smiles": "O=S(=O)(Nc1ccc(-c2nc(-c3ccnc(Nc4ccc(OC(F)(F)F)cc4)c3)no2)cc1)c1ccccc1OC(F)(F)F", "value": 5.60}
{"given smiles": "CC(C)c1ccc(Nc2cc(-c3noc(-c4ccc(NS(=O)(=O)c5ccc(C(C)(C)C)cc5)cc4)n3)ccn2)cc1", "value": 5.11}
{"given smiles": "CC(C)(C)c1ccc(S(=O)(=O)Nc2ccc(-c3nc(-c4ccnc(Nc5ccc(F)c(C(F)(F)F)c5)c4)no3)cc2)cc1", "value": 5.05}
{"given smiles": "CC(C)(C)c1ccc(S(=O)(=O)Nc2ccc(-c3nc(-c4ccnc(Nc5ccc(OC(F)(F)F)cc5)c4)no3)cc2)cc1", "value": 6.14}
{"given smiles": "Cc1ccc(Nc2cc(-c3noc(-c4ccc(NS(=O)(=O)c5ccc(C(C)(C)C)cc5)cc4)n3)ccn2)cc1", "value": 5.82}
{"given smiles": "O=S(=O)(Nc1ccc(-c2nc(-c3ccnc(Nc4ccc(OC(F)(F)F)cc4)c3)no2)cc1)c1ccc(F)c(Cl)c1", "value": 5.30}

* * *

test: Cytotoxicity against rat PC-12 cells assessed as cell viability at 50 uM by MTT assay relative to control; assay type: cell-based; conditions: read-out: Activity

{"given smiles": "COc1ccc(Nc2cc(-c3noc(-c4ccc(NS(=O)(=O)c5ccc(C(C)(C)C)cc5)cc4)n3)ccn2)cc1", "viability at 50 µM": "91.6%"}
{"given smiles": "O=S(=O)(Nc1ccc(-c2nc(-c3ccnc(Nc4ccc(OC(F)(F)F)cc4)c3)no2)cc1)c1ccc(F)c(Cl)c1", "viability at 50 µM": "92.1%"}
{"given smiles": "O=S(=O)(Nc1ccc(-c2nc(-c3ccnc(Nc4ccc(OC(F)(F)F)cc4)c3)no2)cc1)c1ccc(OC(F)(F)F)cc1", "viability at 50 µM": "100%"}
{"given smiles": "O=S(=O)(Nc1ccc(-c2nc(-c3ccnc(Nc4ccc(OC(F)(F)F)cc4)c3)no2)cc1)c1cccs1", "viability at 50 µM": "94.5%"}
{"given smiles": "CC(C)(C)c1ccc(S(=O)(=O)Nc2ccc(-c3nc(-c4ccnc(Nc5ccc(C(F)(F)F)cc5)c4)no3)cc2)cc1", "viability at 50 µM": "94.1%"}

* * *

viability at 30 µM values for the compounds below.
experiment: Cytotoxicity against rat PC-12 cells assessed as cell viability at 30 uM by MTT assay relative to control; assay type: cell-based; details: read-out: Activity

{"compound": "COc1ccc(S(=O)(=O)Nc2ccc(-c3nc(-c4ccnc(Nc5ccc(OC(F)(F)F)cc5)c4)no3)cc2)cc1", "viability at 30 µM": "99.2%"}
{"compound": "CC(C)(C)c1ccc(S(=O)(=O)Nc2ccc(-c3nc(-c4ccnc(Nc5ccc(F)c(C(F)(F)F)c5)c4)no3)cc2)cc1", "viability at 30 µM": "98.9%"}
{"compound": "CC(C)(C)c1ccc(S(=O)(=O)Nc2ccc(-c3nc(-c4ccnc(Nc5ccc(OC(F)(F)F)cc5)c4)no3)cc2)cc1", "viability at 30 µM": "96.3%"}
{"compound": "COC(=O)c1ccc(S(=O)(=O)Nc2ccc(-c3nc(-c4ccnc(Nc5ccc(OC(F)(F)F)cc5)c4)no3)cc2)s1", "viability at 30 µM": "97.2%"}
{"compound": "O=S(=O)(Nc1ccc(-c2nc(-c3ccnc(Nc4ccc(OC(F)(F)F)cc4)c3)no2)cc1)c1ccc(OC(F)(F)F)cc1", "viability at 30 µM": "98.7%"}
{"compound": "O=S(=O)(Nc1ccc(-c2nc(-c3ccnc(Nc4ccc(OC(F)(F)F)cc4)c3)no2)cc1)c1ccc(F)cc1", "viability at 30 µM": "99.9%"}
{"compound": "O=S(=O)(Nc1ccc(-c2nc(-c3ccnc(Nc4ccc(OC(F)(F)F)cc4)c3)no2)cc1)c1cccc(C(F)(F)F)c1", "viability at 30 µM": "97.4%"}
{"compound": "CC(=O)Nc1cccc(S(=O)(=O)Nc2ccc(-c3nc(-c4ccnc(Nc5ccc(OC(F)(F)F)cc5)c4)no3)cc2)c1", "viability at 30 µM": "93.2%"}
{"compound": "CC(C)(C)c1ccc(S(=O)(=O)Nc2ccc(-c3nc(-c4ccnc(Nc5ccc(Cl)cc5F)c4)no3)cc2)cc1", "viability at 30 µM": "98.5%"}
{"compound": "CC(C)c1ccc(Nc2cc(-c3noc(-c4ccc(NS(=O)(=O)c5ccc(C(C)(C)C)cc5)cc4)n3)ccn2)cc1", "viability at 30 µM": "98.8%"}
{"compound": "O=S(=O)(Nc1ccc(-c2nc(-c3ccnc(Nc4ccc(OC(F)(F)F)cc4)c3)no2)cc1)c1ccc(F)c(Cl)c1", "viability at 30 µM": "98.1%"}
{"compound": "O=S(=O)(Nc1ccc(-c2nc(-c3ccnc(Nc4ccc(OC(F)(F)F)cc4)c3)no2)cc1)c1cccs1", "viability at 30 µM": "97.5%"}
{"compound": "O=[N+]([O-])c1cccc(S(=O)(=O)Nc2ccc(-c3nc(-c4ccnc(Nc5ccc(OC(F)(F)F)cc5)c4)no3)cc2)c1", "viability at 30 µM": "94.3%"}
{"compound": "CC(=O)c1ccc(S(=O)(=O)Nc2ccc(-c3nc(-c4ccnc(Nc5ccc(OC(F)(F)F)cc5)c4)no3)cc2)cc1", "viability at 30 µM": "99.1%"}
{"compound": "CCc1ccc(Nc2cc(-c3noc(-c4ccc(NS(=O)(=O)c5ccc(C(C)(C)C)cc5)cc4)n3)ccn2)cc1", "viability at 30 µM": "98.6%"}
{"compound": "Cc1cccc(Nc2cc(-c3noc(-c4ccc(NS(=O)(=O)c5ccc(C(C)(C)C)cc5)cc4)n3)ccn2)c1", "viability at 30 µM": "93.8%"}
{"compound": "Cc1ccccc1Nc1cc(-c2noc(-c3ccc(NS(=O)(=O)c4ccc(C(C)(C)C)cc4)cc3)n2)ccn1", "viability at 30 µM": "100%"}
{"compound": "CC(C)(C)c1ccc(S(=O)(=O)Nc2ccc(-c3nc(-c4ccnc(Nc5ccc(F)c(F)c5)c4)no3)cc2)cc1", "viability at 30 µM": "97.7%"}
{"compound": "CC(C)(C)c1ccc(S(=O)(=O)Nc2ccc(-c3nc(-c4ccnc(Nc5cccc(Cl)c5)c4)no3)cc2)cc1", "viability at 30 µM": "99.2%"}
{"compound": "O=c1c(O)c(-c2ccc(O)c(O)c2)oc2cc(O)cc(O)c12 [QUERCETIN]", "viability at 30 µM": "99.1%"}
{"compound": "CC(C)(C)c1ccc(Nc2cc(-c3noc(-c4ccc(NS(=O)(=O)c5ccc(C(C)(C)C)cc5)cc4)n3)ccn2)cc1", "viability at 30 µM": "96.2%"}
{"compound": "Cc1ccc(Nc2cc(-c3noc(-c4ccc(NS(=O)(=O)c5ccc(C(C)(C)C)cc5)cc4)n3)ccn2)cc1", "viability at 30 µM": "97.9%"}
{"compound": "O=S(=O)(Nc1ccc(-c2nc(-c3ccnc(Nc4ccc(OC(F)(F)F)cc4)c3)no2)cc1)c1ccc(Br)cc1", "viability at 30 µM": "102%"}
{"compound": "O=S(=O)(Nc1ccc(-c2nc(-c3ccnc(Nc4ccc(OC(F)(F)F)cc4)c3)no2)cc1)c1ccc(Cl)s1", "viability at 30 µM": "97.9%"}
{"compound": "CC(C)(C)c1ccc(S(=O)(=O)Nc2ccc(-c3nc(-c4ccnc(Nc5ccc(C(F)(F)F)cc5)c4)no3)cc2)cc1", "viability at 30 µM": "99.1%"}
{"compound": "COc1ccc(Nc2cc(-c3noc(-c4ccc(NS(=O)(=O)c5ccc(C(C)(C)C)cc5)cc4)n3)ccn2)cc1", "viability at 30 µM": "98.6%"}
{"compound": "O=S(=O)(Nc1ccc(-c2nc(-c3ccnc(Nc4ccc(OC(F)(F)F)cc4)c3)no2)cc1)c1ccccc1OC(F)(F)F", "viability at 30 µM": "91.6%"}
{"compound": "O=[N+]([O-])c1ccc(S(=O)(=O)Nc2ccc(-c3nc(-c4ccnc(Nc5ccc(OC(F)(F)F)cc5)c4)no3)cc2)cc1", "viability at 30 µM": "98.5%"}

Value source: ChEMBL document CHEMBL4706608
